SUBJECT_OF_TEST: Estrogen receptor (Homo sapiens)
Sequence (P03372 whole entry): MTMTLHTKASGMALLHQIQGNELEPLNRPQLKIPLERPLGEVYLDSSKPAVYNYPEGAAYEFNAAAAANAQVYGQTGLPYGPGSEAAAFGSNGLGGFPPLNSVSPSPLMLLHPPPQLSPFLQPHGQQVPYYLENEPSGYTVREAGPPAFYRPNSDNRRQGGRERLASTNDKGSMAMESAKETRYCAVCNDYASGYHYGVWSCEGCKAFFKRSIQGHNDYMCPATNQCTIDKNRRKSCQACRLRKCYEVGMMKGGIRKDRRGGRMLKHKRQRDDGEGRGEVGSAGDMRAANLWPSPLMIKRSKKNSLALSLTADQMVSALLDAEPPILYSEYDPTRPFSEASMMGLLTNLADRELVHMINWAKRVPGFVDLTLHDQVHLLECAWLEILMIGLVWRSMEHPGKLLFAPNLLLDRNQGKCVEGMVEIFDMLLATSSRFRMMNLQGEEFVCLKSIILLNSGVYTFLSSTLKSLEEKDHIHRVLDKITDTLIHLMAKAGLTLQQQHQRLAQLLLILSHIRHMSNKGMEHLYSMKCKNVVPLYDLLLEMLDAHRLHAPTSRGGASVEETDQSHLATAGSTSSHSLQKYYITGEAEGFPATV
Recorded pKi, one value per entry.
Please report pKi as the negative decimal logarithm of the molar concentration, giving only the number.

Look over these answered cases.
| QUERY_SMILES | SUBJECT_OF_TEST | OUTCOME_MEASURE | MEASURED_RESULT |
| --- | --- | --- | --- |
| COc1ccccc1-c1[nH]c2ccccc2c1C#C[C@]1(O)CC[C@H]2[C@@H]3CCc4cc(O)ccc4[C@H]3CC[C@@]21C | Estrogen receptor (Homo sapiens) | pKi | 7.46 |
| C[C@]12CC[C@@H]3c4ccc(O)cc4CC[C@H]3[C@@H]1CC[C@@]2(O)C#Cc1c(-c2ccccc2)oc2ccccc2c1=O | Estrogen receptor (Homo sapiens) | pKi | 7.43 |
| Cc1ccc(S(=O)(=O)Oc2ccc3c(C#CCCCCC#C[C@]4(O)CC[C@H]5[C@@H]6CCc7cc(O)ccc7[C@H]6CC[C@@]54C)c(-c4ccc(OCc5ccccc5)cc4)oc3c2)cc1 | Estrogen receptor (Homo sapiens) | pKi | 4.75 |
| C[C@]12CC[C@@H]3c4ccc(O)cc4CC[C@H]3[C@@H]1CC[C@@]2(O)C#CCCCCC#Cc1cccc2c(=O)cc(-c3ccccc3)oc12 | Estrogen receptor (Homo sapiens) | pKi | 6.42 |

# value lookup — system Estrogen receptor (Homo sapiens), readout pKi, item C[C@]12CC[C@@H]3c4ccc(O)cc4CC[C@H]3[C@@H]1CC[C@@]2(O)C#Cc1cccc2c(=O)cc(-c3ccccc3)oc12 7.00

# value lookup — system Estrogen receptor (Homo sapiens), readout pKi, item Cc1ccc(S(=O)(=O)Oc2ccc3c(C#C[C@]4(O)CC[C@H]5[C@@H]6CCc7cc(O)ccc7[C@H]6CC[C@@]54C)c(-c4ccc(OCc5ccccc5)cc4)oc3c2)cc1 6.48

Taken from ChEMBL document CHEMBL1139896.
